Entry source: PubChem BioAssay AID1159580

- ASSAY_INFO: chemical genetic growth profiling, strain panel (AID 1159580);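 note: tested at 20 µM; growth read once vehicle control cultures reached saturation at 30 °C; lower values mean less growth of the strain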
- CONDITION_PARAMETERS: S. cerevisiae deletion strains, growth OD, locus YHR087W, strain rtc3
In all, about 5,500 compounds went through this assay and about 2,000 (36%) were called active. Inconclusive results (about 18%) are left out. Cut-off read from the data, not from the text of the source: active = normalized growth mostly below about 0.91 (no sharp cut-off); inconclusive = no clear call, values can overlap the other calls; inactive = mostly above about 0.92. The list shows a part of the results.
Respond with a class label; see active, inactive

Please review the entries below; each comes with its answer.
[[record]]
structure = "CCCCNC(=O)NCCSCc1ccco1"
label = "inactive"

[[record]]
structure = "O=C(COC(=O)c1ccccc1Nc1ccccc1)c1ccc(Cl)cc1"
label = "inactive"


Query: Please let me know the test result on file for `CCCCCCNC(=O)NCCCCCC` .
Response: inactive

Query: Please let me know the test result on file for `O=C(NCCSCc1ccco1)Nc1cc(Cl)cc(Cl)c1` .
Response: inactive
